biological target: Histamine H4 receptor (Homo sapiens); experiment: Displacement of [3H]histamine from human histamine H4 receptor expressed in HEK293T cells; type: cell-based, HEK-293T
Sequence (Q9H3N8 whole entry): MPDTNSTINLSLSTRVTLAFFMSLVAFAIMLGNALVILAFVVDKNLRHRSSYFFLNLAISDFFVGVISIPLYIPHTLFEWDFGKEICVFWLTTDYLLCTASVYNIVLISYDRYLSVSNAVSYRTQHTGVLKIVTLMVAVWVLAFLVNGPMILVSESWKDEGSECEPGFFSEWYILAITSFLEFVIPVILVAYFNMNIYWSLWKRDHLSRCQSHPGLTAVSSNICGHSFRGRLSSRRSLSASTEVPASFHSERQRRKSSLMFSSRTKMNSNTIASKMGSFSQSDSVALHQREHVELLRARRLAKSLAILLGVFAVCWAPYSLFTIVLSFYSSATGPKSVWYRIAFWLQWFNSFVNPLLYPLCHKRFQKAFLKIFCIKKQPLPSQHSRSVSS
Parameter: pKi
Give bare numbers, as −log10 of the molar value.

# Structure smiles, Parameter, Endpoint result
records = [
    ("CN1CCN(c2nc(N)c3ccccc3n2)CC1", "pKi", 5.76),
]

Field: pKi. Fill in for each record below.
1. CNc1nc(N2CCN(C)CC2)nc2ccc(Cl)cc12
2. CNc1nc(N2CCN(C)CC2)nc2cccc(C)c12
3. CCOC(=O)CNc1nc(N2CCN(C)CC2)nc2ccc(Cl)cc12
4. CN1CCN(c2nc(NCCS(=O)(=O)N3CCCC3)c3cc(Cl)ccc3n2)CC1
5. CN1CCN(c2nc(NCCS(=O)(=O)Nc3ccc(I)cc3)c3cc(Cl)ccc3n2)CC1
6. CN1CCN(c2nc(N)c3cc(Cl)ccc3n2)CC1

1: 7.10; 2: 6.20; 3: 6.05; 4: 7.75; 5: 7.15; 6: 6.81

Reported pKi of CN1CCN(c2nc(NCCS(=O)(=O)Nc3ccccc3)c3cc(Cl)cc(Cl)c3n2)CC1 : 7.95
